# assayed_target: UniProtKB P00797
# Sequence (P00797 67-406): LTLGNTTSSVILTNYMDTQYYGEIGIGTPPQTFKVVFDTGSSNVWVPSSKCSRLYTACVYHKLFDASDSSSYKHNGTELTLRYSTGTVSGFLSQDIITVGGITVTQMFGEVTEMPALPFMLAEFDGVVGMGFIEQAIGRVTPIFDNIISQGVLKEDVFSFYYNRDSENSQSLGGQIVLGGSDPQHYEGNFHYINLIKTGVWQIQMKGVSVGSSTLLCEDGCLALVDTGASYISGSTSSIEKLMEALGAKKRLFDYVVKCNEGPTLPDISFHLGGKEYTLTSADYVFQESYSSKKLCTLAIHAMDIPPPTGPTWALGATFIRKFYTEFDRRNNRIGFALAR
# assay_text: Human renin-sheep renin substrate reaction system in vitro
# Format: biochemical
# recorded_conditions: purified human renin, semipurified sheep renin substrate, pH 7.4, 15 minutes at 37°C, angiotensin I by radioimmunoassay; read-out: IC50 molar concentration
pIC50: −log10 of the molar value.
pIC50 values for the compounds below.
measurement_type: pIC50

INSERT INTO assay_data (compound, reported_result) VALUES
  ('CNC(=O)C(O)[C@H](CC(C)C)NC(=O)[C@H](Cc1c[nH]cn1)NC(=O)C(CC(=O)N1CCCCC1)Cc1cccc2ccccc12 (mixture of isomers) [Example 7]', 6.16),
  ('CNC(=O)C(O)[C@H](CC(C)C)NC(=O)[C@H](Cc1c[nH]cn1)NC(=O)C(CC(=O)N1CCOCC1)Cc1cccc2ccccc12 (mixture of isomers) [Example 3]', 6.47),
  ('CC(C)C[C@H](NC(=O)[C@H](Cc1c[nH]cn1)NC(=O)C(CC(=O)N1CCCCC1)Cc1cccc2ccccc12)C(O)C(=O)OC(C)C (stereo partly shown) [Example 5]', 7.55),
  ('COC(=O)C[C@H](O)[C@H](CC(C)C)NC(=O)[C@H](Cc1c[nH]cn1)NC(=O)C(CC(=O)N1CCOCC1)Cc1cccc2ccccc12 (stereo partly shown) [Example 11]', 6.68),
  ('CCNC(=O)CC(Cc1cccc2ccccc12)C(=O)N[C@@H](Cc1c[nH]cn1)C(=O)N[C@@H](CC(C)C)C(O)C(=O)OC (mixture of isomers) [Example 10]', 6.20),
  ('COC(=O)C(O)[C@H](CC(C)C)NC(=O)[C@H](Cc1c[nH]cn1)NC(=O)C(CC(=O)N1CCCC1)Cc1cccc2ccccc12 (stereo partly shown) [Example 8]', 7.16),
  ('CC(C)CCNC(=O)C[C@H](O)[C@H](CC(C)C)NC(=O)[C@H](Cc1c[nH]cn1)NC(=O)C(CC(=O)N1CCOCC1)Cc1cccc2ccccc12 (stereo partly shown) [Example 13]', 7.44);

###

# assayed_target: UniProtKB P00797
# assay_text: Renin inhibitory effect in a human high renin plasma
# Type: biochemical
# Parameters: from tissue; host or cells: human high renin plasma
# recorded_conditions: pH 7, 60 minutes at 37°C, angiotensin I by radioimmunoassay, read-out: IC50 (molar concentration)
measurement_type: IC50 (nM)

INSERT INTO assay_data (compound, reported_result) VALUES
  ('COC(=O)C(O)[C@H](CC(C)C)NC(=O)[C@H](Cc1c[nH]cn1)NC(=O)C(CC(=O)N1CCCC1)Cc1cccc2ccccc12 (stereo partly drawn)', 62),
  ('CNC(=O)C(O)[C@H](CC(C)C)NC(=O)[C@H](Cc1c[nH]cn1)NC(=O)C(CC(=O)N1CCCCC1)Cc1cccc2ccccc12 (mixture of isomers)', 5200),
  ('CC(C)C[C@H](NC(=O)[C@H](Cc1c[nH]cn1)NC(=O)C(CC(=O)N1CCCCC1)Cc1cccc2ccccc12)C(O)C(=O)OC(C)C (stereo partly drawn)', 88);
